- System: HCT 116 (colorectal carcinoma cell line)
- test: cells
- Assay type: cell-based, human
- particulars: Homo sapiens, HCT-116, 24 h, MTT, incubation 24 h, no copper added
Listing of entries alongside the reported IC50.
Hi! Could you send only the number? It should be in µM, unit omitted.

COc1cccc2c1C(=O)c1c(O)c3c(c(O)c1C2=O)C[C@@](O)(C(=O)CO)C[C@@H]3O[C@H]1C[C@H](N)[C@H](O)[C@H](C)O1 [Doxorubicin, doxorubicin, reference compound]: 13.2

Prompt: # query: IC50 of entry C=C(C)[C@@H]1CC[C@]2(CO)CC[C@]3(C)[C@H](CC[C@@H]4[C@@]5(C)CC[C@H](O)C(C)(C)[C@@H]5CC[C@]43C)[C@@H]12
Completion: 34.9

* * *

- System: MCF-7 (human breast adenocarcinoma cell line)
- test: MTT cytotoxicity assay, MCF-7 cells
- Format: cell-based
- particulars: addition of CuCl2 at 20 µM
quantityName: SI MCF-7 (ratio of IC50 of NHDF-Neo to IC50 of cancer cells)

C=C(C)[C@@H]1CC[C@]2(COC(=O)CCC(=O)OCc3cn(C[C@H]4O[C@@H](OC(C)=O)[C@H](OC(C)=O)[C@@H](OC(C)=O)[C@H]4OC(C)=O)nn3)CC[C@]3(C)C(CCC4[C@@]5(C)CC[C@H](OC(C)=O)C(C)(C)C5CC[C@]43C)C12 (some centres unmarked): >2.3
C=C(C)[C@@H]1CC[C@]2(CO)CC[C@]3(C)[C@H](CC[C@@H]4[C@@]5(C)CC[C@H](O)C(C)(C)[C@@H]5CC[C@]43C)[C@@H]12: 2.4
C=C(C)[C@@H]1CC[C@]2(COC(=O)CCC(=O)OCc3cn(CCO[C@@H]4O[C@H](COC(C)=O)[C@@H](OC(C)=O)[C@H](OC(C)=O)[C@H]4OC(C)=O)nn3)CC[C@]3(C)C(CCC4[C@@]5(C)CC[C@H](OC(C)=O)C(C)(C)C5CC[C@]43C)C12 (some centres unmarked): >1.5
C=C(C)[C@@H]1CC[C@]2(COC(=O)CCC(=O)OCc3cn(CCCO[C@@H]4O[C@H](COC(C)=O)[C@@H](OC(C)=O)[C@H](OC(C)=O)[C@H]4OC(C)=O)nn3)CC[C@]3(C)C(CCC4[C@@]5(C)CC[C@H](OC(C)=O)C(C)(C)C5CC[C@]43C)C12 (some centres unmarked): >1.6
C=C(C)[C@@H]1CC[C@]2(COC(=O)CCC(=O)OCc3cn(CCCO[C@@H]4O[C@H](COC(C)=O)[C@@H](OC(C)=O)[C@H](OC(C)=O)[C@H]4OC(C)=O)nn3)CC[C@]3(C)C(CCC4[C@@]5(C)CC[C@H](O)C(C)(C)C5CC[C@]43C)C12 (some centres unmarked): >1.4
C=C(C)[C@@H]1CC[C@]2(COC(=O)CCC(=O)OCc3cn(CCO[C@@H]4O[C@H](COC(C)=O)[C@@H](OC(C)=O)[C@H](OC(C)=O)[C@H]4OC(C)=O)nn3)CC[C@]3(C)C(CCC4[C@@]5(C)CC[C@H](O)C(C)(C)C5CC[C@]43C)C12 (some centres unmarked): >1.7

Prompt: Give its SI MCF-7 (ratio of IC50 of NHDF-Neo to IC50 of cancer cells) value. Item: C=C(C)[C@@H]1CC[C@]2(COC(=O)CCC(=O)OCc3cn([C@@H]4O[C@H](COC(C)=O)[C@@H](OC(C)=O)[C@H](OC(C)=O)[C@H]4OC(C)=O)nn3)CC[C@]3(C)C(CCC4[C@@]5(C)CC[C@H](OC(C)=O)C(C)(C)C5CC[C@]43C)C12 (some centres unmarked)
Completion: >1.8

Prompt: Fill blank: measured SI MCF-7 (ratio of IC50 of NHDF-Neo to IC50 of cancer cells) of the molecule C=C(C)[C@@H]1CC[C@]2(COC(=O)CCC(=O)OCc3cn([C@@H]4O[C@H](COC(C)=O)[C@@H](OC(C)=O)[C@H](OC(C)=O)[C@H]4OC(C)=O)nn3)CC[C@]3(C)C(CCC4[C@@]5(C)CC[C@H](O)C(C)(C)C5CC[C@]43C)C12 (some centres unmarked) is ____.
Completion: >2.8
